Target: human NKp30 (human) (UniProt O14931)
Sequence (O14931 19-135 limits assumed): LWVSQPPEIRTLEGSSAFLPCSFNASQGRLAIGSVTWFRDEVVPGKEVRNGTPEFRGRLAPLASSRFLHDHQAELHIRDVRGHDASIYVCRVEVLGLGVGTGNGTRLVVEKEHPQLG
Assay: BLI, ratio to ΔB7-H6_wt
measurement-label: x-fold KD improvement (fold)

# binder, numeric-readout
measured = [
    ("ΔB7-H6_S3#14-SEED-PGLALA (bispecific antibody, part only; not given: SEED Fc chains and hu225 Fab, part only) chain, part: DLKVEMMAGGTQITPLNDNVTIFCNIFYSQPLNITTMGITWFWKSLTFDKEVKVFEFYGDHQEAFRPGAIVSPWRLKSGDASLRLPGIQLEEAGEYRCEVVVTPYKAQGTVQLEVVASPAS", 11.9),
    ("ΔB7-H6_S3#31-SEED-PGLALA (bispecific antibody, part only; not given: SEED Fc chains and hu225 EGFR Fab, part only) chain, part: DLKVEMMAGGTQITPLNDNVTIFCNIFYSQPLNITIMGITWFWKSLTFDKEVKVFEFYGDHQEAFRPGAIVSPWRLKSGDASLRLPGIQLEEAGEYRCEVVVTPLKAQGTVQLEVVASPAS", 9.4),
    ("ΔB7-H6_S2#2-SEED-PGLALA (bispecific antibody, part only; not given: SEED Fc chains and hu225 Fab, part only) chain, part: DLKVEMMAGGTQITPLNDNVTIFCNIFYSQPLNITSMGITWFWKSLTFDKEVKVFEFWDDHQEAFRPGAIVSPWRLKSGDASLRLPGIQLEEAGEYRCEVVVTPYKAQGTVQLEVVASPAS", 1.9),
    ("ΔB7-H6_S2#10-SEED-PGLALA (bispecific antibody, part only; not given: SEED Fc chains and hu225 EGFR Fab, part only) chain, part: DLKVEMMAGGTQITPLNDNVTIFCNIFYSQPLNITLMGITWFWKSLTFDKEVKVFEFWGDHQEAFRPGAIVSPWGLKSGDASLRLPGIQLEEAGEYRCEVVVTPLKAQGTVQLEVVASPAS", 2.2),
]

From: patent US20230287082A1
